target: T1, Hu/NoV/GII.4/CHDC4871/1977/U.S. VLP (human norovirus GII.4); test: VLP ELISA
T1 construct: mature; baculovirus VLP; VP2 may be present
recorded.endpoint: minimum concentration of VHH able to recognize 100 ng of VLP (ng/well)
Numbers only here, please. The scale is ng/well.

Some entries whose results are on file:
VHH 7.5 (VHH, llama VHH, MD2004 library; pHEN6, C-terminal His6 tag; also called clone 7.5) VHH: QVKLQESGGGLVQAGESLRLSCAASGSNFSINGVGWYRQAPGKQRELVAGITNGGYTSYADSVKGRFTISTDNAKNTVYLQMNSLRPEDTAVYYCNANFQIHRSGADYVRNYWGQGTQVTVSA	2
VHH 5.4 (VHH, llama VHH, MD2004 library; pHEN6, C-terminal His6 tag; also called clone 5.4) VHH: QVQLQQSGGGLVQPGGSLRLSCVASESTVSINIMGWYRQAPGKQRELVATITTGGTTNYADSVKGRFTISRDNAKNTVYLQMNSLEPEDTAVYYCNLKRRDLQARFGGYWGQGTQVTVSS	0.5
VHH 19 (VHH, MD2004 library, subtractive biopanning; His6 tag; also called 19.1; clone 19) VHH: QVKLQQSGGGLVQPGGSLRLSCAASGFTFRNYAMSWVRQAPGKGLEWVSAIAAGGAVTKYADSVKGRFTISRDNARDTLYLQMNSLKPEDTAVYYCAKPRDFWYSPEFDFRGQGTQVTVSS	1
VHH 3.2 (VHH, llama VHH, MD2004 library; pHEN6, C-terminal His6 tag; also called clone 3.2) VHH: QVQLQESGGGLVQPGGSLRLSCAASESTPSINTMGWYRQAPGKERELVATITSGGMTNYADSVKGRFTISRDNGKNTVYLQMNSLEPGDTAVYYCNLKRRDLQARFGGYWGQGTQVTVSS	0.5
VHH 1 (VHH, llama VHH, MD2004 (GII.4) library; pHEN6, C-terminal His6 tag; also called 1.1; clone 1) VHH: QVQLQQSGGGLVQAGGSLRLSCAASGLAFSSYAITWLRQAPGTEREFVALISGSGSSTYYADSVKGRFTISRNNAKNTVYLQMNSLKPEDTAVYYCTASEFLLHPPPPNQKYDYWGQGTQVTVSS	0.25

Here is the next item to consider.
Task item: Quick one: minimum concentration of VHH able to recognize 100 ng of VLP for VHH 4.1 (VHH, llama VHH, MD2004 library; pHEN6, C-terminal His6 tag; also called clone 4.1) VHH: QVKLQQSGGGLVQPGGSLRLSCAASESTISINTLGWYRQAPGNQRELVATITTGGTTNYADSVKGRFTISRDNAKNTVYLQMNNLEPGDTAVYYCNLKRRDLQSRFGGYWGQGTQVTVSS ?
Reply: 0.5
